target: human PD-L1 on cell surface (human, UniProt Q9NZQ7 19-290); assay: cell-based or functional assay
Sequence (Q9NZQ7 19-290): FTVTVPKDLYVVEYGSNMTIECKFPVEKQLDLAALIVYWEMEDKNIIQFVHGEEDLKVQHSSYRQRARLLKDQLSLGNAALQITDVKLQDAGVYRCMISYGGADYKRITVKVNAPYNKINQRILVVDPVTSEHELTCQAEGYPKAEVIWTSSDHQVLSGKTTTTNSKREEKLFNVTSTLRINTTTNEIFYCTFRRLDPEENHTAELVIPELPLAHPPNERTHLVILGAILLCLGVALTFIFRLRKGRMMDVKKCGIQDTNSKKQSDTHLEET
metric_name: EC50 (µg/ml) of IL-2 release, mixed lymphocyte reaction (µg/mL)

{"binder": "AH02029 (antibody, human IgG1, V domains shown, also called mPD-L1Ab-5BM clone AH02029) VH: QVQLQESGPGLVKPSQTLSLTCTVTGYSITSGYTWHWIRQHPGKGLEWIGYIHYSGSTKYNPSLKSRVSISRDTSKNQFSLKLSSVTAADTAVYYCARNSLFASWGQGTLVTVSS VL: DIVLTQSPDSLAVSLGERATINCRASESVDTYGDSFMHWYQQKPGQPPKLLIYRASNLESGVPDRFSGSGSGTDFTLTISSLQAEDVAVYYCQQSNEAPYTFGGGTKLEIK", "measurement": 0.0293}
